System: hPSC-NSCs
Test: RT-PCR expression of dopamine neuron genes in hPSC-NSCs treated with small molecule hits
Type: cell-based, human
Details: hPSC-NSCs primed 7 days with Purmorphamine and FGF8, small molecule 2.5 μM for two weeks
Item-by-item account of Tubb3 expression by RT-PCR
Number only, no unit.

Check out these entries, answers already filled in.
- compound: "CCOC(=O)c1ncn2c1CN(C)C(=O)c1cc(N=[N+]=[N-])ccc1-2 [Ro 15-4513]"
  observed value: 4.9
- compound: "Cl.O=C(O)COc1ccc(OCCNC[C@H](O)COc2ccccc2)cc1 [ICI 215,001 hydrochloride]"
  observed value: 5.54
- compound: "C/C(=C\\c1ccc(C(=O)O)cc1)c1ccc2c(c1)C(C)(C)CCC2(C)C [TTNPB]"
  observed value: 4.64
- compound: "Br.CCCN(CCC)C1CCc2cccc(O)c2C1 (centres unmarked) [8-Hydroxy-DPAT hydrobromide]"
  observed value: 7.8

Now let's try a different one.
The compound listed as c1ccc(-c2[nH]ncc2-c2ccnc3ccccc23)nc1 [LY 364947] has a reported Tubb3 expression by RT-PCR of 4.23

###

Test system: hPSC-NSCs
Assay: RT-PCR expression of dopamine neuron genes in hPSC-NSCs treated with small molecule hits
Type: cell-based, human
Conditions: hPSC-NSCs primed 7 days with Purmorphamine and FGF8, small molecule 2.5 μM for two weeks
measured parameter: DDC (AADC) expression by RT-PCR
Number only, no unit.

Check out these entries, answers already filled in.
- compound: "CCOC(=O)c1ncn2c1CN(C)C(=O)c1cc(N=[N+]=[N-])ccc1-2 [Ro 15-4513]"
  tested target: "hPSC-NSCs"
  measured parameter: "DDC (AADC) expression by RT-PCR"
  observed value: 12.88
- compound: "N[C@@H]1CCN(O)C1=O [(R)-(+)-HA-966]"
  tested target: "hPSC-NSCs"
  measured parameter: "DDC (AADC) expression by RT-PCR"
  observed value: 104.03
- compound: "N[C@@H](CS(=O)O)C(=O)O [L-Cysteinesulfinic acid]"
  tested target: "hPSC-NSCs"
  measured parameter: "DDC (AADC) expression by RT-PCR"
  observed value: 17.27

The compound listed as Cc1nnc2ccc(-c3cccc(C(F)(F)F)c3)nn12 [CL 218872] has a reported DDC (AADC) expression by RT-PCR of 8.73

The compound listed as Cl.O=C(O)COc1ccc(OCCNC[C@H](O)COc2ccccc2)cc1 [ICI 215,001 hydrochloride] has a reported DDC (AADC) expression by RT-PCR of 29.34

The compound listed as Br.CCCN(CCC)C1CCc2cccc(O)c2C1 (stereo not shown) [8-Hydroxy-DPAT hydrobromide] has a reported DDC (AADC) expression by RT-PCR of 124.29

The compound listed as O=C(O)Cc1cccnc1C(=O)O [Homoquinolinic acid] has a reported DDC (AADC) expression by RT-PCR of 20.19

###

Test system: hPSC-NSCs
Assay: RT-PCR expression of dopamine neuron genes in hPSC-NSCs treated with small molecule hits
Type: cell-based, human
Details: hPSC-NSCs primed 7 days with Purmorphamine and FGF8, small molecule 2.5 μM for two weeks
PITX3 expression by RT-PCR less than 0.2 is yes; PITX3 expression by RT-PCR greater than or equal to 0.2 is no.

- compound: "CC(C)(C)c1cc(C(=O)/C=C/c2ccc(C(=O)O)cc2)cc(C(C)(C)C)c1"
  discrete label: "yes"

Confirm or reject: PITX3 expression by RT-PCR of CCOC(=O)c1ncn2c1CN(C)C(=O)c1cc(N=[N+]=[N-])ccc1-2 lies strictly below 0.2
no

Confirm or reject: PITX3 expression by RT-PCR of N[C@@H]1CCN(O)C1=O [(R)-(+)-HA-966] lies strictly below 0.2
no

###

Item-by-item account of fold induction at 2.5 µM
Test system: hPSC-NSCs
Assay: RT-PCR expression of dopamine neuron genes in hPSC-NSCs treated with small molecule hits
Format: cell-based, human
Settings: Homo sapiens, Neuron, 336 h; hPSC-NSCs primed 7 days with Purmorphamine and FGF8, small molecule 2.5 μM for two weeks; read-out: LMX1B expression by RT-PCR
Where a name gives a salt, the structure may show the parent alone.
Number only, no unit.

Check out these entries, answers already filled in.
- molecule: "S=C(NC1CCCCC1)N1CCC(c2cnc[nH]2)CC1 [Thioperamide]"
  fold induction at 2.5 µM: 3.81
- molecule: "FC(F)(F)c1cccc(-c2noc(-c3cc(-c4ccccc4)c(C(F)(F)F)s3)n2)c1 [SEW 2871]"
  fold induction at 2.5 µM: 3.65
- molecule: "CCN1CCC[C@H]1CNC(=O)c1c(OC)ccc(Br)c1OC [Remoxipride hydrochloride]"
  fold induction at 2.5 µM: 3.16

The molecule listed as C/C=C1\C(=O)C[C@H]2[C@@H]3CCC4=CC(=O)CC[C@]4(C)[C@H]3CC[C@]12C [Guggulsterone] has a reported fold induction at 2.5 µM of 6.45

The molecule listed as O=C(O)c1cc(=O)c2ccccc2[nH]1 [Kynurenic acid] has a reported fold induction at 2.5 µM of 6.36

The molecule listed as c1cc(Cc2cnc[nH]2)ccn1 [Immethridine dihydrobromide] has a reported fold induction at 2.5 µM of 7.66

The molecule listed as CCCC[C@@H](C=O)NC(=O)[C@H](CC(C)C)NC(=O)OCc1ccccc1 [Calpeptin] has a reported fold induction at 2.5 µM of 2.9

The molecule listed as O=S(=O)(c1cccc2cnccc12)N1CCCNCC1 [Fasudil hydrochloride] has a reported fold induction at 2.5 µM of 3.5

The molecule listed as CC1(C)NC(=O)N(c2ccc([N+](=O)[O-])c(C(F)(F)F)c2)C1=O [Nilutamide] has a reported fold induction at 2.5 µM of 2.55

The molecule listed as CC1=C(/C=C/C(C)=C/C=C/C(C)=C/C(=O)O)C(C)(C)CCC1 [Retinoic acid] has a reported fold induction at 2.5 µM of 1.25

The molecule listed as O=C1N(c2ccccc2)c2ccccc2C1(Cc1ccncc1)Cc1ccncc1 [Linopirdine dihydrochloride] has a reported fold induction at 2.5 µM of 2.84

###

Tested on: hPSC-NSCs
Experiment: RT-PCR expression of dopamine neuron genes in hPSC-NSCs treated with small molecule hits
Type: cell-based, human
Details: hPSC-NSCs primed 7 days with Purmorphamine and FGF8, small molecule 2.5 μM for two weeks
Item-by-item account of MAP2 expression by RT-PCR

- compound: "c1ccc(-c2[nH]ncc2-c2ccnc3ccccc23)nc1"
  MAP2 expression by RT-PCR: 10.48
- compound: "CCOC(=O)c1ncn2c1CN(C)C(=O)c1cc(N=[N+]=[N-])ccc1-2"
  MAP2 expression by RT-PCR: 7.19
- compound: "Cl.O=C(O)COc1ccc(OCCNC[C@H](O)COc2ccccc2)cc1 [ICI 215,001 hydrochloride]"
  MAP2 expression by RT-PCR: 11.2

Now let's try a different one.
The compound listed as Cl.N=C(N)NC(=N)Nc1cccc(Cl)c1 [m-Chlorophenylbiguanide hydrochloride] has a reported MAP2 expression by RT-PCR of 9.6

###

Item-by-item account of DDC (AADC) expression by RT-PCR
System: hPSC-NSCs
Assay: RT-PCR expression of dopamine neuron genes in hPSC-NSCs treated with small molecule hits
Format: cell-based, human
Conditions: hPSC-NSCs primed 7 days with Purmorphamine and FGF8, small molecule 2.5 μM for two weeks

- compound: "CC(C)(C)c1cc(C(=O)/C=C/c2ccc(C(=O)O)cc2)cc(C(C)(C)C)c1"
  DDC (AADC) expression by RT-PCR: 22.86
- compound: "C/C(=C\\c1ccc(C(=O)O)cc1)c1ccc2c(c1)C(C)(C)CCC2(C)C"
  DDC (AADC) expression by RT-PCR: 21.95
- compound: "Cc1cc(C(=O)O)sc1C(N)C(=O)O (stereo not drawn)"
  DDC (AADC) expression by RT-PCR: 80.55
- compound: "Cl.N=C(N)NC(=N)Nc1cccc(Cl)c1 [m-Chlorophenylbiguanide hydrochloride]"
  DDC (AADC) expression by RT-PCR: 69.41
- compound: "c1ccc(-c2[nH]ncc2-c2ccnc3ccccc23)nc1"
  DDC (AADC) expression by RT-PCR: 64.48

Now let's try a different one.
The compound listed as Nc1nc(Nc2ccccc2)nc2c1ncn2[C@@H]1O[C@H](CO)[C@@H](O)[C@H]1O has a reported DDC (AADC) expression by RT-PCR of 16.69

###

System: hPSC-NSCs
Experiment: RT-PCR expression of dopamine neuron genes in hPSC-NSCs treated with small molecule hits
Format: cell-based, human
Settings: hPSC-NSCs primed 7 days with Purmorphamine and FGF8, small molecule 2.5 μM for two weeks
measured parameter: PITX3 expression by RT-PCR

Check out these entries, answers already filled in.
- compound: "O=C(O)Cc1cccnc1C(=O)O"
  measured parameter: "PITX3 expression by RT-PCR"
  observed value: 0.4
- compound: "Cc1nnc2ccc(-c3cccc(C(F)(F)F)c3)nn12"
  measured parameter: "PITX3 expression by RT-PCR"
  observed value: 0.08
- compound: "Nc1nc(Nc2ccccc2)nc2c1ncn2[C@@H]1O[C@H](CO)[C@@H](O)[C@H]1O"
  measured parameter: "PITX3 expression by RT-PCR"
  observed value: 0.7

Now let's try a different one.
Assay hPSC-NSCs, sample Cc1cc(C(=O)O)sc1C(N)C(=O)O (stereo not shown) , PITX3 expression by RT-PCR read: 0.46

Recorded values, source patent US9926529B2.
